// data source = patent US20250027068

target: pooled human IgG
measurement kind: Enzyme Activity Endpoint Assay (purified): Fc (ng/µL)
Numbers only, in ng/µL.

| protein | display unit | quantitative result |
| --- | --- | --- |
| PRT-72 (protein) MANQEIRYSEVTPYHVTSVWTKGVTPPAKFTQGEDVFHAPYVANQGWYDITKTFNGKDDLLCGAATAGNMLHWWFDQNKEYIEAYLKKHPEKQKIMFGDQELLDVRKVINTKGDQTNSELFNYFRDKAFPYLSARRLGVMPDLVLDMFINGYYLNVTKTQTTDVNRTYQEKDRRGGIFDAVFTRGDQSKLLTSRHDFKEKNLKEISDLIKKELTEGKALGLSHTYANVRINHVINLWGADFDSNGNLKAIYVTDSDSNASIGMKKYFVGVNSAGKVAISAKEIKEDNIGAQVLGLFTLSTGQDIWNQTN | ng/µL | 100 |

// next item, Enzyme Activity Endpoint Assay (purified): Fc requested
Query :: I have this protein here, PRT-126 (protein) MRNATEAYAKEVPHQITSVWTKGVTPLTPEQFRYNNEDVIHAPYLANQGWYDITKTFDGKDNLLCGAATAGNMLHWWFDQNKTEIEAYLSKHPEKQKIIFNNQELFDLKAAIDTKDSQTNSQLFNYFRDKAFPNLSARQLGVMPDLVLDMFINGYYLNVFKTQSTDVNRPYQDKDKRGGIFDAVFTRGDQTTLLTARHDLKNKGLNDISDLIKQELTEGKALALSHTYANVSISHVINLWGADFNAEGNLEAIYVTDSDSNASIGMKKYFVGVNAAGHVAISAKKIEGENIGAQVLGLFTLSSGKDIWQKLS , and I need its recorded Enzyme Activity Endpoint Assay (purified): Fc.
Result :: 160
